- TARGET_OR_TEST_SYSTEM: TRYPSIN (Bos taurus, UniProt P00760)
- Construct: gene PRSS1
- Sequence (P00760 24-246): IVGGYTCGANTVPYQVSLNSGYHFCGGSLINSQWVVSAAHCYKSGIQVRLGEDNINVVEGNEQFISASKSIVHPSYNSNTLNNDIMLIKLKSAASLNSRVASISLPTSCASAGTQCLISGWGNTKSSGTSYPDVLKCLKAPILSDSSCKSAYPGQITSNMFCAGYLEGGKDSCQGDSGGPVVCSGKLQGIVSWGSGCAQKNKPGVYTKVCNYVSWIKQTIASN
- MEASUREMENT_NOTES: trypsin protease inhibition
- Format: biochemical
A collection of compounds and their measured IC50
ENDPOINT: IC50 (nM)

>>> data_value("CN1CCC(Oc2ccc3c(ccc(=O)n3Cc3ccc4ccc(C(=N)N)cc4c3)c2)CC1 [Example 16]")
315
>>> data_value("CC(=N)N1CCC(Oc2ccc3c(ccc(=O)n3Cc3ccc(-c4cccc(C(=N)N)c4)cc3)c2)CC1 [Example 7]")
4290
>>> data_value("CCn1c(Cn2c(=O)ccc3cc(OC4CCN(C(C)=N)CC4)ccc32)cc2ccc(C(=N)N)cc21 [Example 14]")
10.4
>>> data_value("N=C(N)c1cccc(-c2cccc(Cn3c(=O)ccc4cc(OC5CCNCC5)ccc43)c2)c1 [Example 5]")
263
>>> data_value("N=C(N)c1ccc2ccc(Cn3c(=O)ccc4cc(OC5CCN(c6ncccn6)CC5)ccc43)cc2c1 [Example 18]")
656
>>> data_value("CCn1c(Cn2c(=O)ccc3cc(OC4CCN(C(C)=N)CC4)ccc32)cc2ccc(C(=N)NN)cc21 [Example 17]")
832
